# System: HeLa Kyoto
# Protocol details: thermal stability score vs G1/S (z-score of summed log2 fold changes over temperatures); higher = more thermally stable than in G1/S
# Condition notes: cell cycle stage: mitosis
So I've got a bunch of sequences here, and I need their thermal stability score values.
Give bare numbers.

Seq text: MAAACGPGAAGYCLLLGLHLFLLTAGPALGWNDPDRMLLRDVKALTLHYDRYTTSRRLDPIPQLKCVGGTAGCDSYTPKVIQCQNKGWDGYDVQWECKTDLDIAYKFGKTVVSCEGYESSEDQYVLRGSCGLEYNLDYTELGLQKLKESGKQHGFASFSDYYYKWSSADSCNMSGLITIVVLLGIAFVVYKLFLSDGQYSPPPYSEYPPFSHRYQRFTNSAGPPPPGFKSEFTGPQNTGHGATSGFGSAFTGQQGYENSGPGFWTGLGTGGILGYLFGSNRAATPFSDSWYYPSYPPSYPGTWNRAYSPLHGGSGSYSVCSNSDTKTRTASGYGGTRRR [SARAF]
thermal stability score: 0.434

### Prompt Lab note: need thermal stability score for MEQLRAAARLQIVLGHLGRPSAGAVVAHPTSGTISSASFHPQQFQYTLDNNVLTLEQRKFYEENGFLVIKNLVPDADIQRFRNEFEKICRKEVKPLGLTVMRDVTISKSEYAPSEKMITKVQDFQEDKELFRYCTLPEILKYVECFTGPNIMAMHTMLINKPPDSGKKTSRHPLHQDLHYFPFRPSDLIVCAWTAMEHISRNNGCLVVLPGTHKGSLKPHDYPKWEGGVNKMFHGIQDYEENKARVHLVMEKGDTVFFHPLLIHGSGQNKTQGFRKAISCHFASADCHYIDVKGTSQENIEKEVVGIAHKFFGAENSVNLKDIWMFRARLVKGERTNL [PHYH] on HeLa Kyoto, anyone have it?
### Response 2.13

----------
# Test system: HeLa Kyoto
# Protocol details: melting temperature (median over replicates), in situ; higher = more thermally stable
# Condition notes: cell cycle stage: G1/S
Readout type: melting temperature (°C)
Give bare numbers, in °C.

Solved cases below.
Seq text: MALDVKSRAKRYEKLDFLGEGQFATVYKARDKNTNQIVAIKKIKLGHRSEAKDGINRTALREIKLLQELSHPNIIGLLDAFGHKSNISLVFDFMETDLEVIIKDNSLVLTPSHIKAYMLMTLQGLEYLHQHWILHRDLKPNNLLLDENGVLKLADFGLAKSFGSPNRAYTHQVVTRWYRAPELLFGARMYGVGVDMWAVGCILAELLLRVPFLPGDSDLDQLTRIFETLGTPTEEQWPDMCSLPDYVTFKSFPGIPLHHIFSAAGDDLLDLIQGLFLFNPCARITATQALKMKYFSNRPGPTPGCQLPRPNCPVETLKEQSNPALAIKRKRTEALEQGGLPKKLIF [CDK7]
melting temperature (°C): 51

Seq text: MKDRLEQLKAKQLTQDDDTDAVEIAIDNTAFMDEFFSEIEETRLNIDKISEHVEEAKKLYSIILSAPIPEPKTKDDLEQLTTEIKKRANNVRNKLKSMEKHIEEDEVRSSADLRIRKSQHSVLSRKFVEVMTKYNEAQVDFRERSKGRIQRQLEITGKKTTDEELEEMLESGNPAIFTSGIIDSQISKQALSEIEGRHKDIVRLESSIKELHDMFMDIAMLVENQGEMLDNIELNVMHTVDHVEKARDETKKAVKYQSQARKKLIIIIVLVVVLLGILALIIGLSVGLN [STX3]
melting temperature (°C): 53.9

Please go through the list and note melting temperature for each sequence.
1. MEEASEGGGNDRVRNLQSEVEGVKNIMTQNVERILARGENLEHLRNKTEDLEATSEHFKTTSQKVARKFWWKNVKMIVLICVIVFIIILFIVLFATGAFS [VAMP8]
2. MAEERPGAWFGFGFCGFGQELGSGRGRQVHSPSPLRAGVDICRVSASWSYTAFVTRGGRLELSGSASGAAGRCKDAWASEGLLAVLRAGPGPEALLQVWAAESALRGEPLWAQNVVPEAEGEDDPAGEAQAGRLPLLPCARAYVSPRAPFYRPLAPELRARQLELGAEHALLLDAAGQVFSWGGGRHGQLGHGTLEAELEPRLLEALQGLVMAEVAAGGWHSVCVSETGDIYIWGWNESGQLALPTRNLAEDGETVAREATELNEDGSQVKRTGGAEDGAPAPFIAVQPFPALLDLPMGSDAVKASCGSRHTAVVTRTGELYTWGWGKYGQLGHEDTTSLDRPRRVEYFVDKQLQVKAVTCGPWNTYVYAVEKGKS [RCCD1]
3. MAALGRPFSGLPLSGGSDFLQPPQPAFPGRAFPPGADGAELAPRPGPRAVPSSPAGSAARGRVSVHCKKKHKREEEEDDDCPVRKKRITEAELCAGPNDWILCAHQDVEGHGVNPSVSGLSIPGILDVICEEMDQTTGEPQCEVARRKLQEIEDRIIDEDEEVEADRNVNHLPSLVLSDTMKTGLKREFDEVFTKKMIESMSRPSMELVLWKPLPELLSDKPKPSSNTKNYTGESQAKHVAAGTAFPQRTELFSEPRPTGMSLYNSLETATSTEEEMEL [CCDC117]

### Response
1. 57.8
2. 51.8
3. 51.6
